Origin of the recorded values: paper PMC11545984

Overview of recorded IC50 for various molecules
# Test system: SKBR3
# Assay method text: IC50 determination (MTT test), SKBR3
# Type: cell-based
# Experimental parameters: Homo sapiens, SK-BR-3, breast cancer, 72 h

Molecule	Measurement qualifier	IC50 (µM)
COc1cccc(OC)c1C1=NN(c2c(Cl)cc(Cl)cc2Cl)[C@]2(CC/C=C(\C)CC[C@@H]3[C@@H]2CC3(C)C)C1 [Compound 23a]	>	50
COc1ccc(C2=NO[C@]3(CC/C=C(\C)CC[C@@H]4[C@@H]3CC4(C)C)C2)cc1 [Compound 17a]	=	36.5
CC1=CCCC2(CC(C)=NN2c2ccccc2)C2CC(C)(C)C2CC1 (stereo not shown) [Compound 21a]	=	12.3
CC1(C)C[C@H]2[C@H]1CC[C@]1(C)ON=C(c3ccc(Cl)cc3)[C@H]1CC[C@@]21CC(c2ccc(Cl)cc2)=NO1	>	50

----------
# Test system: DU145, A549, VA-13, HEK293, EMT6
# Assay method text: Initial cytotoxicity testing (MTT test), all cell lines together
# Type: cell-based
# Experimental parameters: after 72 h, read-out: IC50 on all cells
// values below are reported IC50
Measured endpoint: IC50

Molecule	Measured endpoint	Recorded value
C=C1CC[C@@H]2C(c3ccc(OC)cc3)=NO[C@@]2(C)CC[C@@H]2[C@@H]1CC2(C)C [Compound 17b]	IC50	< 50 µM
COc1cccc(OC)c1C1=NN(c2c(Cl)cc(Cl)cc2Cl)[C@]2(CC/C=C(\C)CC[C@@H]3[C@@H]2CC3(C)C)C1 [Compound 23a]	IC50	< 50 µM

----------
Entries annotated with measured IC50 at 72 h
# Assay method text: Initial cytotoxicity testing (MTT test), HEK293
# Format: cell-based, human
# Experimental parameters: human healthy cells, MTT, 72 h, two concentrations 50–100 µM

Compound	IC50 at 72 h
C/C1=C\CC[C@@]2(CC(c3ccc(Cl)cc3)=NO2)[C@H]2CC(C)(C)[C@@H]2CC1 [Compound 16a]	> 50 µM
COc1cccc(OC)c1C1=NN(c2c(Cl)cc(Cl)cc2Cl)[C@]2(CC[C@H]3C(c4c(OC)cccc4OC)=NN(c4c(Cl)cc(Cl)cc4Cl)[C@]3(C)CC[C@@H]3[C@@H]2CC3(C)C)C1	> 50 µM
CC1(C)C[C@H]2[C@H]1CC[C@]1(C)ON=C(c3ccc(Cl)cc3)[C@H]1CC[C@@]21CC(c2ccc(Cl)cc2)=NO1	> 50 µM
C=C1CC[C@@H]2C(C)=NN(c3ccccc3)[C@@]2(C)CC[C@@H]2[C@@H]1CC2(C)C [Compound 21b]	> 50 µM
CC1(C)C[C@H]2[C@H]1CC[C@]1(C)[C@@H](CC[C@@]23CC(c2ccccc2)=NN3c2ccccc2)C(c2ccccc2)=NN1c1ccccc1	> 50 µM
C/C1=C\CC[C@@]2(CC(c3ccccc3)=NN2c2ccccc2)[C@H]2CC(C)(C)[C@@H]2CC1 [Compound 22a]	50 to 100 µM
CC1(C)C[C@H]2[C@H]1CC[C@@]1(C)ON=C(Br)[C@@H]1CC[C@@]21CC(Br)=NO1	50 to 100 µM
C=C1CC[C@@H]2C(c3ccc(Cl)cc3)=NO[C@@]2(C)CC[C@@H]2[C@@H]1CC2(C)C [Compound 16b]	> 50 µM
C=C1CC[C@@H]2C(c3ccc(OC)cc3)=NO[C@@]2(C)CC[C@@H]2[C@@H]1CC2(C)C [Compound 17b]	< 50 µM

----------
# Assay method text: in vitro
# Experimental parameters: dog
Strictly below 40 µM in CC50 at 48 h: 1 (yes). Otherwise: 0 (no).

Molecule	Discrete label
CC1(C)C[C@H]2[C@H]1CC[C@]1(C)ON=C(c3ccc(Cl)cc3)[C@H]1CC[C@@]21CC(c2ccc(Cl)cc2)=NO1	0 (no)
C=C1CC[C@H]2C(c3ccccc3)=NN(c3ccccc3)[C@]2(C)CC[C@@H]2[C@@H]1CC2(C)C [Compound 22b]	1 (yes)
CC1(C)C[C@H]2[C@H]1CC[C@@]1(C)ON=C(Br)[C@@H]1CC[C@@]21CC(Br)=NO1	1 (yes)
CC1=CCCC2(CC(C)=NN2c2ccccc2)C2CC(C)(C)C2CC1 (centres unmarked) [Compound 21a]	1 (yes)
C=C1CC[C@H]2C(c3c(OC)cccc3OC)=NN(c3c(Cl)cc(Cl)cc3Cl)[C@]2(C)CC[C@@H]2[C@@H]1CC2(C)C [Compound 23b]	0 (no)
COc1ccc(C2=NO[C@]3(CC[C@@H]4C(c5ccc(OC)cc5)=NO[C@@]4(C)CC[C@@H]4[C@@H]3CC4(C)C)C2)cc1	0 (no)
C=C1CC[C@@H]2C(c3ccc(Cl)cc3)=NO[C@@]2(C)CC[C@@H]2[C@@H]1CC2(C)C [Compound 16b]	1 (yes)
C=C1CC[C@@H]2C(C)=NN(c3ccccc3)[C@@]2(C)CC[C@@H]2[C@@H]1CC2(C)C [Compound 21b]	0 (no)
C/C1=C\CC[C@@]2(CC(c3ccc(Cl)cc3)=NO2)[C@H]2CC(C)(C)[C@@H]2CC1 [Compound 16a]	0 (no)
COc1cccc(OC)c1C1=NN(c2c(Cl)cc(Cl)cc2Cl)[C@]2(CC[C@H]3C(c4c(OC)cccc4OC)=NN(c4c(Cl)cc(Cl)cc4Cl)[C@]3(C)CC[C@@H]3[C@@H]2CC3(C)C)C1	0 (no)
COc1ccc(C2=NO[C@]3(CC/C=C(\C)CC[C@@H]4[C@@H]3CC4(C)C)C2)cc1 [Compound 17a]	1 (yes)

----------
# Tested on: HEK-293
# Assay method text: IC50 determination (MTT test), HEK-293
# Assay type: cell-based
# Experimental parameters: Homo sapiens, HEK293, normal cells, 72 h
pIC50: −log10 of the molar value.
Measured endpoint: pIC50

Compound	Measurement qualifier	Recorded value
COc1ccc(C2=NO[C@]3(CC/C=C(\C)CC[C@@H]4[C@@H]3CC4(C)C)C2)cc1 [Compound 17a]	=	4.35
CC1=CCCC2(CC(C)=NN2c2ccccc2)C2CC(C)(C)C2CC1 (stereo not shown) [Compound 21a]	=	4.85
COc1cccc(OC)c1C1=NN(c2c(Cl)cc(Cl)cc2Cl)[C@]2(CC/C=C(\C)CC[C@@H]3[C@@H]2CC3(C)C)C1 [Compound 23a]	=	4.41
CC1(C)C[C@H]2[C@H]1CC[C@]1(C)ON=C(c3ccc(Cl)cc3)[C@H]1CC[C@@]21CC(c2ccc(Cl)cc2)=NO1 [Compound 25]	<	4.30

----------
# Assay method text: in vitro
# Experimental parameters: dog
Measured endpoint: log10 of CC50 at 48 h (log10 of the value in µM)

Compound	Measured endpoint	Recorded value
C/C1=C\CC[C@@]2(CC(Br)=NO2)[C@H]2CC(C)(C)[C@@H]2CC1 [Compound 19a]	log10 of CC50 at 48 h	1.29
C=C1CC[C@H]2C(Br)=NO[C@]2(C)CC[C@@H]2[C@@H]1CC2(C)C [Compound 19b]	log10 of CC50 at 48 h	1.65
CC1=CCCC2(CC(c3cc(Br)ccc3O)=NO2)C2CC(C)(C)C2CC1 (stereo not shown) [Compound 18a]	log10 of CC50 at 48 h	1.40
C/C1=C\CC[C@@]2(CC(c3ccccc3)=NN2c2ccccc2)[C@H]2CC(C)(C)[C@@H]2CC1 [Compound 22a]	log10 of CC50 at 48 h	2.23
COc1cccc(OC)c1C1=NN(c2c(Cl)cc(Cl)cc2Cl)[C@]2(CC/C=C(\C)CC[C@@H]3[C@@H]2CC3(C)C)C1 [Compound 23a]	log10 of CC50 at 48 h	1.01
C=C1CC[C@@H]2C(c3ccc(OC)cc3)=NO[C@@]2(C)CC[C@@H]2[C@@H]1CC2(C)C [Compound 17b]	log10 of CC50 at 48 h	1.43

----------
# Tested on: MDCK cells
# Assay method text: Cytotoxicity in MDCK cells (MTT, CC50)
# Experimental parameters: uninfected MDCK cells, 48 h
Measured endpoint: CC50 (µM)

Compound	Measured endpoint	Measurement qualifier	Recorded value
NC(=O)c1ncn([C@@H]2O[C@H](CO)[C@@H](O)[C@H]2O)n1 [Ribavirin, reference compound]	CC50	>	2000
NC12CC3CC(CC(C3)C1)C2 [Amantadine, reference compound]	CC50	=	284
CC(N)C1C[C@@H]2CC[C@H]1C2 (stereo partly shown) [Deitiforin, reference compound]	CC50	=	1270
CC(N)C12CC3CC(CC(C3)C1)C2 (stereo not shown) [Rimantadine, reference compound]	CC50	=	335

----------
# Assay method text: Initial cytotoxicity testing (MTT test), HEK293
# Format: cell-based, human
# Experimental parameters: human healthy cells, MTT, 72 h, two concentrations 50–100 µM
IC50 at 72 h by entry:
Measured endpoint: IC50 at 72 h

Compound	Recorded value
C=C1CC[C@H]2C(c3ccccc3)=NN(c3ccccc3)[C@]2(C)CC[C@@H]2[C@@H]1CC2(C)C [Compound 22b]	< 50 µM
COc1ccc(C2=NO[C@]3(CC[C@@H]4C(c5ccc(OC)cc5)=NO[C@@]4(C)CC[C@@H]4[C@@H]3CC4(C)C)C2)cc1 [Compound 26]	> 50 µM
C=C1CC[C@H]2C(c3cc(Br)ccc3O)=NO[C@]2(C)CC[C@@H]2[C@@H]1CC2(C)C [Compound 18b]	50 to 100 µM
COc1cccc(OC)c1C1=NN(c2c(Cl)cc(Cl)cc2Cl)[C@]2(CC/C=C(\C)CC[C@@H]3[C@@H]2CC3(C)C)C1 [Compound 23a]	< 50 µM
C/C1=C\CC[C@@]2(CC(Br)=NO2)[C@H]2CC(C)(C)[C@@H]2CC1 [Compound 19a]	> 50 µM
CC1=CCCC2(CC(c3cc(Br)ccc3O)=NO2)C2CC(C)(C)C2CC1 (stereo not shown) [Compound 18a]	> 50 µM
C=C1CC[C@H]2C(c3c(OC)cccc3OC)=NN(c3c(Cl)cc(Cl)cc3Cl)[C@]2(C)CC[C@@H]2[C@@H]1CC2(C)C [Compound 23b]	> 50 µM
